test system: NOMO1; experiment: cell viability relative to DMSO control; higher = less cytotoxic; conditions: HPLM + 10% dialyzed FBS; 48 h; 0.000781 µM
ENDPOINT: cell viability (%)

- CN(C)[C@H]\1[C@@H]2C[C@H]3C(=C(O)\[C@]2(O)C(=O)\C(=C1O)C(N)=O)/C(=O)C4=C(O)C=CC=C4[C@@]3(C)O: 104
- CC(C)=CC[C@@H](O)C/1=C/C(=O)C2=C(O)C=CC(=C2C1=O)O: 91.5
- CCOC(=O)C/1=C(O)/C(=O)N(CC2=CC=CC=C2)C1: 95.4
- CCOC(=O)\C1=C(/C)N\C2=C(C1C3=CC=C(C=C3)C4=CC=CC=C4)\C(=O)CC(C)(C)C2 (centres undefined): 125
- C#C[C@]1(O)CC[C@H]2[C@@H]3CCc4cc(O)ccc4[C@H]3CC[C@@]21C: 101
- COc1cc2c(cc1OC)CC(=O)N(CCCN(C)C[C@H]1Cc3cc(OC)c(OC)cc31)CC2.Cl: 126
- Cc1cccc(Nc2nc(-c3ccncc3)cs2)c1: 96.3
- O=C(O)C1=NC(C(=O)O)CC(/C=C/N2c3cc(O)c(OC4OC(CO)C(O)C(O)C4O)cc3CC2C(=O)O)=C1 (centres undefined): 111
- CC(C)CC(=O)N[C@H](C(=O)N[C@H](C(=O)N[C@@H](CC(C)C)[C@@H](O)CC(=O)N[C@@H](C)C(=O)N[C@@H](CC(C)C)[C@@H](O)CC(=O)O)C(C)C)C(C)C: 107
- CO[C@@H]1COCC[C@@H]1N[C@@H]1CC[C@@](C(=O)N2CCc3ncc(C(F)(F)F)cc3C2)(C(C)C)C1: 107
- CCn1c(-c2nonc2N)nc2cnc(Oc3cccc(NC(=O)c4ccc(OCCN5CCOCC5)cc4)c3)cc21: 90.6
- FC1=CC=C(SC/2=N/N3\C=N/C(=O)/C(=C3/C=C2)C4=C(Cl)C=CC=C4Cl)C(=C1)F: 99
- C[C@]1(c2nc3c(C(N)=O)cccc3[nH]2)CCCN1: 70.8
- OC1CCC(Nc2ncc3nc(Nc4c(F)cc(F)cc4F)n([C@@H]4CCOC4)c3n2)CC1 (some centres undefined): 112
- CC1(C)O[C@@H]2C[C@H]3[C@@H]4CCC5=CC(=O)C=C[C@]5(C)[C@H]4[C@@H](O)C[C@]3(C)[C@]2(C(=O)CO)O1: 95
- NC(=O)c1ccc(I)c([N+](=O)[O-])c1: 130
- Cc1cc2c(F)c(Oc3ncnn4cc(OC[C@@H](C)O)c(C)c34)ccc2[nH]1: 107
- C[C@@H]1[C@H](O)[C@@H](C)/C=C/C=C/C=C/C=C/C=C/C=C/C=C/[C@H](O[C@@H]2O[C@H](C)[C@@H](O)[C@H](N)[C@@H]2O)C[C@@H]2O[C@](O)(C[C@@H](O)C[C@@H](O)[C@H](O)CC[C@@H](O)C[C@@H](O)CC(=O)O[C@H]1C)C[C@H](O)[C@H]2C(=O)O: 113
- O=C(Nc1ccccc1-c1cn2c(CN3CCNCC3)csc2n1)c1cnc2ccccc2n1: 91.8

###

system: SEM cells; assay: cell viability relative to DMSO control; higher = less cytotoxic; conditions: RPMI 5 mM glucose + 10% dialyzed FBS; 48 h; 0.0211 µM
ENDPOINT: cell viability (%)

• CC(C)CC(=O)N[C@H](C(=O)N[C@H](C(=O)N[C@@H](CC(C)C)[C@@H](O)CC(=O)N[C@@H](C)C(=O)N[C@@H](CC(C)C)[C@@H](O)CC(=O)O)C(C)C)C(C)C = 93.4
• Cc1c(C(=O)NN2CCCCC2)nn(-c2ccc(Cl)cc2Cl)c1-c1ccc(Cl)cc1 = 116
• C\C1=C(\C=C(\C#N)C(=O)N1)C2=CC=NC=C2 = 130
• NC(=O)c1ccc(I)c([N+](=O)[O-])c1 = 118
• COc1ccc(-c2nc(N3CCOCC3)c3sc(CN(C)c4ncc(C(=O)NO)cn4)cc3n2)cn1 = 37.7
• Nc1ncnc2c1c(-c1cnc3[nH]ccc3c1)nn2C1CCCC1 = 114
• C[S+](=O)([O-])N1CCc2c(-c3cnc(N)nc3)nc(N3CCOCC3)nc21 = 104
• N#Cc1c(NC(=O)c2cccc3ccccc23)sc2c1CCCC2 = 137
• COc1cc2ncnc(Nc3ccc(F)c(Cl)c3)c2cc1NC(=O)/C=C/CN1CCCCC1 = 116
• CC1(C)O[C@@H]2C[C@H]3[C@@H]4CCC5=CC(=O)C=C[C@]5(C)[C@H]4[C@@H](O)C[C@]3(C)[C@]2(C(=O)CO)O1 = 81.8
• CC(C)C1=C(O)C=C(O)C(=C1)C/2=N/NC(=O)N2C3=CC4=C(C=C3)[N](C)C=C4 = 114
• CC(C)C(=O)Nc1ccc([N+](=O)[O-])c(C(F)(F)F)c1 = 144
• CSCC[C@@H](NC(=O)[C@@H](Cc1ccccc1)NC(=O)CNC(=O)CNC(=O)[C@@H](N)Cc1ccc(O)cc1)C(=O)O = 20.9
